# target.or.test.system: Potassium-transporting ATPase (Sus scrofa, UniProt P19156)
# Sequence (P18434 whole entry): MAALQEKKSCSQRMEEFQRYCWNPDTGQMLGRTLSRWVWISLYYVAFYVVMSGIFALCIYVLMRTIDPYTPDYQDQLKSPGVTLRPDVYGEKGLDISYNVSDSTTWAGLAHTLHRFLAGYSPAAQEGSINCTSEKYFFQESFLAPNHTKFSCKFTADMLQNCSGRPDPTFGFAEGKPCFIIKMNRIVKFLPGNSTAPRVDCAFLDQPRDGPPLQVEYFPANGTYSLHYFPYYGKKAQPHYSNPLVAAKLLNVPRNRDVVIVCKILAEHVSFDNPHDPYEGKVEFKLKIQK
# Sequence (P19156 whole entry): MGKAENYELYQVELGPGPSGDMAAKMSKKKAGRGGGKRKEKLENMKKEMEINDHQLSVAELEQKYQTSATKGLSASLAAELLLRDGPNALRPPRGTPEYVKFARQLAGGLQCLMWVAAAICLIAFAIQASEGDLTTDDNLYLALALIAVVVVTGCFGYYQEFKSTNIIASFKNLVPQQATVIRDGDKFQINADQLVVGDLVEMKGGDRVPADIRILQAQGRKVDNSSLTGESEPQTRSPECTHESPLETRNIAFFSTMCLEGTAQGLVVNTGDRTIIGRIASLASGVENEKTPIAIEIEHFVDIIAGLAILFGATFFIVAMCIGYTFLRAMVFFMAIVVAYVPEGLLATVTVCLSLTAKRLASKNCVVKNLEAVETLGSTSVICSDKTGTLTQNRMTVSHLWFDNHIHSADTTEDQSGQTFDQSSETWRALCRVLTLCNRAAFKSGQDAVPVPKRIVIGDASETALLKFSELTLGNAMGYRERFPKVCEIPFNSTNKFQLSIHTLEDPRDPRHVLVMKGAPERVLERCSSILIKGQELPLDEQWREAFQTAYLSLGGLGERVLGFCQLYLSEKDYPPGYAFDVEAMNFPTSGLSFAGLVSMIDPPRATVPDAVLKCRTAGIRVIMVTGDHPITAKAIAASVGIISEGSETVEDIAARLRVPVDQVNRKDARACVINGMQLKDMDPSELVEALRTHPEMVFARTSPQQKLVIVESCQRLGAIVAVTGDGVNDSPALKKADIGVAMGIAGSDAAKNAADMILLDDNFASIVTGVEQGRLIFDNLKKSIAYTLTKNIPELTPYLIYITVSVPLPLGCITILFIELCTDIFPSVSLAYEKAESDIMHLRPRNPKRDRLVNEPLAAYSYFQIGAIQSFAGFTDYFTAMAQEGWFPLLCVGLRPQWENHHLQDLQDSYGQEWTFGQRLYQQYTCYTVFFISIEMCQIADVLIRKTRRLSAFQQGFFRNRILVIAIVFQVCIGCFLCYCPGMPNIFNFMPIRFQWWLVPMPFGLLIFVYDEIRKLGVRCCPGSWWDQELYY
# measurement.description: Inhibition of K+ -stimulated gastric ATPase activity was measured using lyophilized gastric vesicles at pH 7
pIC50: −log10 of the molar value.
reported.metric: pIC50

INSERT INTO results (molecule, reported_metric, experimental_value) VALUES
  ('CCCC(=O)c1cnc2c(C3CO3)cccc2c1Nc1ccccc1C (stereo not drawn)', 'pIC50', 5.52),
  ('CCC(=O)c1cnc2c(OCCO)cccc2c1Nc1ccccc1C', 'pIC50', 6.12),
  ('CCCC(=O)c1cnc2c(OCCCC(=O)NC(C)(C)CO)cccc2c1Nc1c(C)cccc1C', 'pIC50', 5.55),
  ('CCCC(=O)c1cnc2c(OCCCc3nc4ccccc4[nH]3)cccc2c1Nc1c(C)cccc1C', 'pIC50', 5.85),
  ('CCCC(=O)c1c(C)nc2ccccc2c1Nc1ccccc1C', 'pIC50', 4.47),
  ('CCCC(=O)c1cnc2c(OC)cccc2c1Nc1cccc(CO)c1C', 'pIC50', 5.22),
  ('COCCOc1cccc2c(Nc3ccccc3C)c(C(=O)C(C)C)cnc12', 'pIC50', 5.85),
  ('CCCC(=O)c1cnc2c(OC)cccc2c1Nc1ccc(OC(=O)CC)cc1C', 'pIC50', 4.72),
  ('CCC(=O)c1cnc2c(Oc3ccccn3)cccc2c1Nc1c(C)cccc1C', 'pIC50', 5.33),
  ('CCCC(=O)c1cnc2c(OC)cccc2c1Nc1cc(C)cc(C)c1', 'pIC50', 4.95),
  ('CCCC(=O)c1cnc2c(C)cccc2c1Nc1ccccc1CC', 'pIC50', 5.54),
  ('CCCC(=O)c1cnc2c(OCCCC(N)=O)cccc2c1Nc1c(C)cccc1C', 'pIC50', 5.66),
  ('CCCC(=O)c1cnc2c(C(=O)O)cccc2c1Nc1ccccc1C', 'pIC50', 5.23),
  ('CCCC(=O)c1cnc2c(OC)cccc2c1Nc1ccc(N(C)C)cc1C', 'pIC50', 5.63),
  ('CCCC(=O)c1cnc2c(OC)cccc2c1Nc1cccc(C)c1C', 'pIC50', 5.85),
  ('CCCC(=O)c1cnc2c(C(C)O)cccc2c1Nc1ccccc1C (stereo not drawn)', 'pIC50', 6.43),
  ('CCCC(=O)c1cnc2c(OCCCNc3ccccn3)cccc2c1Nc1c(C)cccc1C', 'pIC50', 6.05),
  ('Cc1cc(O)ccc1Nc1c(C(=O)C(C)C)cnc2c(CO)cccc12', 'pIC50', 7.44),
  ('CCCC(=O)c1cnc2c(Oc3ccnc(Cl)c3)cccc2c1Nc1ccccc1C', 'pIC50', 5.16),
  ('CCCC(=O)c1cnc2c(OC)cc(O)cc2c1Nc1ccccc1C', 'pIC50', 5.89),
  ('CCCC(=O)c1cnc2c(OC)cccc2c1Nc1c(C)cc(O)c(O)c1C', 'pIC50', 5.55),
  ('CCCC(=O)c1cnc2c(OCCCc3cnc[nH]3)cccc2c1Nc1c(C)cccc1C', 'pIC50', 6.22),
  ('CCC(=O)c1cnc2c(O)cccc2c1Nc1ccccc1C', 'pIC50', 6.07);
